Where do these numbers come from? They come from the Immune Epitope Database (IEDB).

Catalogue of Kd readings, one per entry.
- ASSAY TARGET: HLA-A*02:01
- ASSAY TEXT: IEDB peptide-MHC binding, purified MHC/direct/fluorescence; filed as Kd, often an IC50 or EC50 that approximates it; bounds were set here for any values at or beyond the usual limits of such assays
- CONDITION SET: source organism: Escherichia coli O157:H7

BIOPOLYMER SEQUENCE	Kd
EEDAAVDDL	≥ 20 µM
ALEKGIKDV	6 µM
YECTSRHFT	≥ 20 µM

----------
- ASSAY TARGET: HLA-A*31:01
- ASSAY TEXT: IEDB peptide-MHC binding, purified MHC/competitive/radioactivity; filed as Kd, often an IC50 or EC50 that approximates it; bounds were set here for any values at or beyond the usual limits of such assays
- CONDITION SET: source organism: Dengue virus 4 Philippines/H241/1956
Kd by entry:
ATTRIBUTE MEASURED: Kd (nM)

BIOPOLYMER SEQUENCE	ASSAY TARGET	READOUT VALUE
KTFDTEYPK	HLA-A*31:01	29.8
MTIIGRRLQR	HLA-A*31:01	15.1
